Exercise: for every item that follows, state its recorded Stimulation.
# System Name: Melanocortin receptor 3 (Mus musculus) (UniProt P33033)
# Sequence (P33033 whole entry): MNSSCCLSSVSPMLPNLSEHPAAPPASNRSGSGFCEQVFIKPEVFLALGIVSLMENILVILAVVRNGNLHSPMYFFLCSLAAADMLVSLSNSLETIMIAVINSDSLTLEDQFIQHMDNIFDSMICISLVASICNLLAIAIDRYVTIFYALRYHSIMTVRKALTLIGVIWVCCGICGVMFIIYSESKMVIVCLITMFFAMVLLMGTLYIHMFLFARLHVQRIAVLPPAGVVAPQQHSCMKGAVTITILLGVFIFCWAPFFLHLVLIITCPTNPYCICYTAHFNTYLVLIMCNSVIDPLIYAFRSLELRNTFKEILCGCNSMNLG
# Assay Overview: Percent stimulation at melanocortin 3 receptor (MC3R) of mouse HEK293 cells at a concentration of 100 uM
# Type: cell-based
Where a SMILES comes first, the peptide text is derived from it. [ ]: non-standard residue; d: D form. Gly(N(CH2)2(3-indolyl)) = O=C(O)CNCCc1c[nH]c2ccccc12; Gly(N-CH2CH2-imidazol-4-yl) = O=C(O)CNCCc1c[nH]cn1; N(1-naphthylmethyl)Gly = O=C(O)CNCc1cccc2ccccc12; Gly(N-(CH2)3-guanidino) = N=C(N)NCCCNCC(=O)O; NhArg = N=C(N)NCCCCNCC(=O)O; Nphe = O=C(O)CNCc1ccccc1; Nlys = NCCCCNCC(=O)O
Write down the value, and be sure its unit follows.

CC(=O)N(CCc1c[nH]cn1)CC(=O)N[C@@H](Cc1ccccc1)C(=O)N[C@@H](CCCN=C(N)N)C(=O)N[C@@H](Cc1c[nH]c2ccccc12)C(N)=O (Ac-[Gly(N-CH2CH2-imidazol-4-yl)]FRW-NH2); 60%

List Stimulation for every entry below, keeping the order given.
1. CC(=O)N(CCc1c[nH]cn1)CC(=O)N(CC(=O)N(CCCN=C(N)N)CC(=O)N(CCc1c[nH]c2ccccc12)CC(N)=O)Cc1ccccc1 (Ac-[Gly(N-CH2CH2-imidazol-4-yl)][Nphe][Gly(N-(CH2)3-guanidino)][Gly(N(CH2)2(3-indolyl))]-NH2)
2. CC(=O)N(CCc1c[nH]cn1)CC(=O)N(CC(=O)N(CCCCN)CC(=O)N(CCc1c[nH]c2ccccc12)CC(N)=O)Cc1ccccc1 (Ac-[Gly(N-CH2CH2-imidazol-4-yl)][Nphe][Nlys][Gly(N(CH2)2(3-indolyl))]-NH2)
3. CC(=O)N(CC(=O)N[C@@H](Cc1ccccc1)C(=O)N[C@@H](CCCN=C(N)N)C(=O)N[C@@H](Cc1c[nH]c2ccccc12)C(N)=O)Cc1ccccc1 (Ac-[Nphe]FRW-NH2)
4. CC(=O)N(CC(=O)N(CC(=O)N(CCCCN=C(N)N)CC(=O)N(CC(N)=O)Cc1cccc2ccccc12)Cc1ccccc1)Cc1ccccc1 (Ac-[Nphe][Nphe][NhArg][N(1-naphthylmethyl)Gly]-NH2)
5. CC(=O)N[C@@H](Cc1c[nH]cn1)C(=O)N[C@@H](Cc1ccccc1)C(=O)N[C@@H](CCCN=C(N)N)C(=O)N(CCc1c[nH]c2ccccc12)CC(N)=O (Ac-HFR[Gly(N(CH2)2(3-indolyl))]-NH2)

Result:
1: 55%; 2: 75%; 3: 25%; 4: 55%; 5: 70%
